species: Cavia porcellus; experiment: Compound was evaluated for the inhibitory activity against slow reacting substance of anaphylaxis (SRS-A) of guinea pig ileum; type: functional, organism-based
Label criterion met when IC50 < 0.06 µg/mL; otherwise criterion not met.

Illustrative cases are given below, each with its answer.
| MOLECULE | CAT |
| --- | --- |
| C=C(C)[C@H]1Cc2c(ccc3c2OC2COc4cc(OC)c(OC)cc4C2/C3=N/O)O1 (some centres undefined) | criterion not met |
| COc1cc2c(cc1OC)[C@@H]1C(=O)c3ccc4oc(C(C)C)cc4c3O[C@@H]1CO2 | criterion not met |
| C=C(C)[C@H]1Cc2c(ccc3c2O[C@H]2COc4cc(OC)c(OC)cc4[C@H]2C3=O)O1 | criterion met |
| C=C(C)[C@H]1Cc2c(ccc3c2OC2COc4cc(OC)c(OC)cc4C2/C3=N/OC(=O)OCC)O1 (some centres undefined) | criterion not met |

Q: # strict comparison: is reported IC50 < 0.06 µg/mL? input = `C=C(C)[C@H]1Cc2c(ccc3c2O[C@@H]2COc4cc(OC)c(OC)cc4[C@@H]2C3=O)O1`
Ans: criterion met

Q: # strict comparison: is reported IC50 < 0.06 µg/mL? input = CCCc1c(OCC(O)COc2ccc3c(=O)cc(C(=O)[O-])oc3c2CCC)ccc(C(C)=O)c1O.[Na+] (centres undefined) [FPL-55712 SODIUM SALT]
Ans: criterion met

Q: # strict comparison: is reported IC50 < 0.06 µg/mL? input = `COc1cc2c(cc1OC)[C@]1(O)C(=O)c3ccc4c(c3O[C@@H]1CO2)C=CC(C)(C)O4`
Ans: criterion not met

Q: # strict comparison: is reported IC50 < 0.06 µg/mL? input = C=C(C)[C@H]1Cc2c(ccc3c2OC2COc4cc(OC)c(OC)cc4C2/C3=N/OC(C)=O)O1 (some centres undefined)
Ans: criterion not met

Q: # strict comparison: is reported IC50 < 0.06 µg/mL? input = `COc1cc2c(cc1OC)[C@@H]1C(=O)c3ccc4c(c3O[C@@H]1CO2)C[C@H](C(C)C)O4`
Ans: criterion met

The reported measurements were obtained from ChEMBL document CHEMBL1121506.
